Test system: Radical scavenging activity
assay.procedure: Antioxidant activity assessed as DPPH radical scavenging activity
Format: functional
measured.attribute: IC50 (µM)

{"compound": "CC(C)=CCC1C(=O)C(C(=O)CC(C)C)=C(O)C(O)(CC=C(C)C)C1=O (configuration not stated)", "measured.target": "Radical scavenging activity", "measured.attribute": "IC50", "value.measured": 32}
{"compound": "CC(C)=CCC1=C(O)C(C(=O)CC(C)C)=C(O)C(CC=C(C)C)(CC=C(C)C)C1=O", "measured.target": "Radical scavenging activity", "measured.attribute": "IC50", "value.measured": 25}

Values were extracted from ChEMBL document CHEMBL1781983.
